Value source: paper PMC11053489

Listed next: entries and their corresponding pEC50.
System: SARS-CoV-2 (hCoV-19/USA-WA1/2020) in Caco-2 cells
Assay: microbe, parasite or virus in culture
Settings: Severe acute respiratory syndrome coronavirus 2, Caco-2, 72 h, read-out: Caco-2 SARS-CoV-2 EC50
pEC50: −log10 of the molar value.
assay.readout: pEC50

> print(dat)
                                   compound  qualifier.sign  reported.result
1       C=CCc1ccc(O)c(-c2ccc(O)c(CC=C)c2)c1               =             5.02
2               Cc1cccc(Nc2ccccc2C(=O)O)c1C               <             4.00
3                    NC(=O)c1nc(F)c[nH]c1=O               =             3.59
4  CCC(CC)COC(=O)[C@H](C)N[P@](=O)(OC[C@H]1O[C@@](C#N)(c2ccc3c(N)ncnn23)[C@H](O)[C@@H]1O)Oc1ccccc1               =             7.70
5  CC(c1cc2ccccc2s1)N(O)C(N)=O (stereo not drawn)               <             4.00
6  CC(C)(C)[C@H](NC(=O)C(F)(F)F)C(=O)N1C[C@H]2[C@@H]([C@H]1C(=O)N[C@H](C#N)C[C@@H]1CCNC1=O)C2(C)C               =             7.00

###

Here, each record is paired with measured CC50 at 3 days data.
Test: in vitro
Details: human, Caco-2
Structures can show the parent of a compound that is named as a salt.
assay.readout: CC50 at 3 days

> print(dat)
                                   molecule  reported.result
1  Cc1cccc(/C=N/Nc2cc(N3CCOCC3)nc(OCCc3ccccn3)n2)c1 [Apilimod mesylate]         > 100 µM
2  CC(=O)Oc1ccccc1C(=O)Nc1ncc([N+](=O)[O-])s1 [Nitazoxanide]           7.2 µM
3      NC(=O)c1nc(F)c[nH]c1=O [Favipiravir]         > 300 µM
4  N#C[C@@]1(c2ccc3c(N)ncnn23)O[C@H](CO)[C@@H](O)[C@H]1O [GS-441524]         > 100 µM
5  CC(c1cc2ccccc2s1)N(O)C(N)=O (stereo not drawn) [Zileuton]         > 100 µM
6     O=c1c2ccccc2[se]n1-c1ccccc1 [Ebselen]         > 100 µM

###

Conditions: human, in vivo
Structures can show the parent of a compound that is named as a salt.
Decide using Cmax (μM) {unbound} alone. Strictly below 0.04 µM: rule met. Equal to or above 0.04 µM: rule not met.

molecule	assigned.label
CC#CC(=O)N1CCC[C@H]1c1nc(-c2ccc(C(=O)Nc3ccccn3)cc2)c2c(N)nccn12	rule met
CC(c1cc2ccccc2s1)N(O)C(N)=O (centres unmarked)	rule not met
O=c1c2ccccc2[se]n1-c1ccccc1	rule met
CC(C)C(=O)OC[C@H]1O[C@@](C#N)(c2ccc3c(N)ncnn23)[C@H](O)[C@@H]1O	rule not met
CN(Cc1cc(Br)cc(Br)c1N)C1CCCCC1	rule met
Cc1cccc(/C=N/Nc2cc(N3CCOCC3)nc(OCCc3ccccn3)n2)c1 [Apilimod mesylate]	rule not met
CC(C)C(=O)OC[C@H]1O[C@@H](n2ccc(NO)nc2=O)[C@H](O)[C@@H]1O	rule not met
